Form field: selectivity ratio (one value per entry).
assayProtocol: Selectivity index, ratio of CC50 for HEK293 cells to EC50 for wild type Trypanosoma brucei brucei s427 trypomastigotes
Format: toxicity, cell-based
measurementConditions: human; read-out: Ratio CC50/EC50
propertyMeasured: selectivity ratio

1. CCCCCC[N+](CCCCCC)(CCCCCC)Cc1ccc(C(=O)c2ccccc2)cc1.[Br-] :: 668
2. O=C(c1ccc(C[n+]2cccc3ccccc32)cc1)c1ccc(C[n+]2cccc3ccccc32)cc1.[Br-].[Br-] :: > 6
3. CCCC[N+](CCCC)(CCCC)Cc1ccc(C(=O)c2ccccc2)cc1.[Br-] :: > 65
4. [Br-].[Br-].c1ccc2c(c1)ccc[n+]2Cc1ccc(Oc2ccc(C[n+]3cccc4ccccc43)cc2)cc1 :: > 27
5. Cl.O=C(c1ccccc1)c1ccc(CN(Cc2ccccc2)Cc2ccccc2)cc1 :: > 27
6. CCCCCC[N+](CCCCCC)(CCCCCC)Cc1ccc(Oc2ccc(C[N+](CCCCCC)(CCCCCC)CCCCCC)cc2)cc1.[Br-].[Br-] :: 213
7. CCCC[N+](CCCC)(CCCC)Cc1ccc(C(=O)c2ccc(C[N+](CCCC)(CCCC)CCCC)cc2)cc1.[Br-].[Br-] :: > 26
8. CCCC[N+](CCCC)(CCCC)Cc1ccc(Oc2ccc(C[N+](CCCC)(CCCC)CCCC)cc2)cc1.[Br-].[Br-] :: > 100

---

assayProtocol: Cytotoxicity against HEK293 cells after 16 hrs by alamar blue assay
Type: cell-based
measurementConditions: human
Form field: CC50 at 16 h (one value per entry).
propertyMeasured: CC50 at 16 h

1) CCCCCC[N+](CCCCCC)(CCCCCC)Cc1ccc(C(=O)c2ccccc2)cc1.[Br-] :: 15.4 µM
2) CCCC[N+](CCCC)(CCCC)Cc1ccc(C(=O)c2ccccc2)cc1.[Br-] :: > 300 µM
3) CCCC[N+](CCCC)(CCCC)Cc1ccc(Oc2ccc(C[N+](CCCC)(CCCC)CCCC)cc2)cc1.[Br-].[Br-] :: > 300 µM
4) O=C(c1ccc(C[n+]2cccc3ccccc32)cc1)c1ccc(C[n+]2cccc3ccccc32)cc1.[Br-].[Br-] :: > 300 µM
5) Cl.O=C(c1ccccc1)c1ccc(CN(Cc2ccccc2)Cc2ccccc2)cc1 :: > 300 µM
6) CCCC[N+](CCCC)(CCCC)Cc1ccc(C(=O)c2ccc(C[N+](CCCC)(CCCC)CCCC)cc2)cc1.[Br-].[Br-] :: > 300 µM
7) CCCCCC[N+](CCCCCC)(CCCCCC)Cc1ccc(Oc2ccc(C[N+](CCCCCC)(CCCCCC)CCCCCC)cc2)cc1.[Br-].[Br-] :: 21.8 µM
8) [Br-].[Br-].c1ccc2c(c1)ccc[n+]2Cc1ccc(Oc2ccc(C[n+]3cccc4ccccc43)cc2)cc1 :: > 300 µM
